Test system: DLD-1 colon
Assay: NCI tumour cell line growth inhibition, 48 h
TEST_READOUT: TGI

Past entries and their recorded results:
COMPOUND: COc1c2c(cc3c1C(=O)Cc1ccc4c(c1CN(C)CC3)OCO4)OCO2
TARGET_SYSTEM: DLD-1 colon
TGI: > 100 µM
//
COMPOUND: COc1cc(C=O)cc(O)c1O
TARGET_SYSTEM: DLD-1 colon
TGI: > 100 µM
//
COMPOUND: CCOCc1cc(=O)c2c(OC)cc3c(c2o1)CCC(C)(C)O3
TARGET_SYSTEM: DLD-1 colon
TGI: > 100 µM
//
COMPOUND: COc1cc(/C=C2/C(=O)N(C(=O)OCc3ccccc3)C(Cc3cc(OC)c(OC)c(C)c3OC)C(=O)N2Cc2ccccc2)c(OC)c(C)c1OC (stereo unspecified)
TARGET_SYSTEM: DLD-1 colon
TGI: > 100 µM
//
COMPOUND: C[Si](C)(C)C(Sc1ccccc1)(Sc1ccccc1)Sc1ccccc1
TARGET_SYSTEM: DLD-1 colon
TGI: > 100 µM

# input for lookup
What measured TGI goes with CCN(CC)CCNc1ccc2nc(C)n3c4ccc(O)cc4c(=O)c1c23 ? 10.5 µM

---

Test system: MOLT-4 leukemia
Assay: NCI tumour cell line growth inhibition, 48 h
TEST_READOUT: TGI

Past entries and their recorded results:
MOLECULE: N#Cc1c(N2CCN(c3ccc([N+](=O)[O-])cc3)CC2)[n+](=O)c2ccccc2n1[O-]
TGI: > 100 µM

MOLECULE: CCOC(=O)CNc1nnnn1C1OC(CO)C(O)C1O (stereo unspecified)
TGI: > 100 µM

Provide TGI for all items below, preserving their order.
1. CN(C)c1ccc(N=C2C=CC(=O)c3ccccc32)cc1
2. CCOC(=O)c1cc(C2CCN(Cc3ccccc3)C2=S)c(C(=O)C=[N+]=[N-])[nH]1 (stereo unspecified)
3. CCO/C(Cc1ccc(Cl)cc1)=N/NC(N)=S
4. COCCn1cc(-c2csc(-c3c[nH]c4ccc(Br)cc34)n2)c2cccnc21

["6.21 µM", "> 100 µM", "> 100 µM", "> 100 µM"]

---

Give TGI for every item shown.
Tested on: 786-0 renal
Assay: NCI tumour cell line growth inhibition, 48 h
One number for each entry, in µM.

Past entries and their recorded results:
MOLECULAR_STRING: CCN(Cc1ccc(F)cc1)c1ccc(CO)c(OC)c1
ENDPOINT_UNIT: µM
RESULT_VALUE: 65.1

MOLECULAR_STRING: CN(C)c1ccc(/C=C/c2cc(-c3ccccc3)[n+](C)n2-c2ccccc2)cc1
ENDPOINT_UNIT: µM
RESULT_VALUE: 23

MOLECULAR_STRING: COC1=CC(=O)C2=C(C[C@@]3(C)C(=C2)C(CO)=CC[C@H]3O)C1=O
ENDPOINT_UNIT: µM
RESULT_VALUE: 38.1

# input for lookup
What measured TGI goes with O=C1C=CC2(C=C1)C[C@H](NC(=O)OCc1ccccc1)C(=O)O2 ? 27.6

---

Give TGI for every item shown.
Tested on: IGROV1 ovarian
Test: NCI tumour cell line growth inhibition, 48 h
Numbers only, in µM.

Past entries and their recorded results:
MOLECULE: O=C1C=CC2(C=C1)C[C@H](NC(=O)OCc1ccccc1)C(=O)O2
ENDPOINT_UNIT: µM
TGI: 38.1

MOLECULE: CC1=C([Se]CC(OC(=O)[C@@H](CO)NC(=O)OC(C)(C)C)C(=O)NCCCCCC(=O)OCc2ccccc2)C(=O)c2ccccc2C1=O (some centres undefined)
ENDPOINT_UNIT: µM
TGI: 3.37

MOLECULE: O=[N+]([O-])c1ccc(Sc2ccncn2)c([N+](=O)[O-])c1
ENDPOINT_UNIT: µM
TGI: 5.3

MOLECULE: CC(C)[C@@H](C)[C@@]1(C)C[C@@H]1[C@@H](C)[C@H]1CC[C@@H]([C@@H]2CC=C3C[C@@H](O)CC[C@]3(C)C2=O)[C@]1(C)CCO
ENDPOINT_UNIT: µM
TGI: 29.8

# input for lookup
What measured TGI goes with Nc1c(F)cc(-c2nc3cc(F)ccc3[se]2)cc1Br ? 27.4
